What pIC50 was measured for each of the following?
molecular target: Glucagon receptor (Homo sapiens); experiment: Binding affinity towards cloned human glucagon receptor in BHK cells.; assay type: cell-based
Sequence (P47871 whole entry): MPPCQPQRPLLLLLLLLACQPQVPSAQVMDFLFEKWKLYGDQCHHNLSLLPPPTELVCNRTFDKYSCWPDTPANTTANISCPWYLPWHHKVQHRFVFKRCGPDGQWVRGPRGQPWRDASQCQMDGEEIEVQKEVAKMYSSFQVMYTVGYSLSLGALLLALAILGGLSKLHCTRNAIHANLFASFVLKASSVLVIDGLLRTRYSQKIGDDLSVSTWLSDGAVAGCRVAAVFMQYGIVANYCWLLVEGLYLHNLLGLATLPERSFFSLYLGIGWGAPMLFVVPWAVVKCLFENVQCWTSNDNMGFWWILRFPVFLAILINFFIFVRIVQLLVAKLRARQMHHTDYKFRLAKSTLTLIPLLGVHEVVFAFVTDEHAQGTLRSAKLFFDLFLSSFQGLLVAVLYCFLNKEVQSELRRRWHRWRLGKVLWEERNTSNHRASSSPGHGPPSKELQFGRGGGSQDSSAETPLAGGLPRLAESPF
pIC50: −log10 of the molar value.

Observe how each entry below is paired with its result.
CHEMICAL_STRING | ASSAY_SYSTEM | pIC50
O=C(CSc1ncc[nH]1)c1ccc(O)c(O)c1 | Glucagon receptor (Homo sapiens) | < 3.30
COC(=O)c1cccc(COc2ccc3[nH]c(SCC(=O)c4ccc(O)c(O)c4)nc3c2)c1 | Glucagon receptor (Homo sapiens) | 4.80

Could you now look at the following compound, please?
Query :: Please report the recorded pIC50 for O=C(O)c1cccc(C(=O)CSc2nc3ccccc3[nH]2)c1 .
Result :: < 3.30

* * *

molecular target: Glucagon receptor (Homo sapiens); experiment: Binding affinity towards cloned human glucagon receptor in BHK cells.; type: cell-based
READOUT_NAME: pIC50
Numbers only, as −log10 of the molar value.

CHEMICAL_STRING | READOUT_NAME | REPORTED_MEASUREMENT
O=C(CSc1nnc(-c2ccccc2)[nH]1)c1ccc(O)c(O)c1 | pIC50 | 4.26
O=C(CSc1ccc2ccccc2n1)c1ccc(O)c(O)c1 | pIC50 | 3.80
O=C(CSc1nc2ccccc2[nH]1)c1cccc(O)c1 | pIC50 | 3.42
COc1ccc2[nH]c(SCC(=O)c3ccc(O)c(O)c3)nc2c1 | pIC50 | 4.38
O=C(CSc1nc2ccccc2s1)c1ccc(O)c(O)c1 | pIC50 | 4.14
O=C(CSc1nc2ccccc2[nH]1)c1ccc(O)c(Cl)c1 | pIC50 | 4.92
CC(C)(C)c1ccc2nc(SCC(=O)c3ccc(O)c(O)c3)[nH]c2c1 | pIC50 | 5.27
COC(=O)c1cccc(COc2ccc3[nH]c(SCC(=O)c4ccc(O)c(Cl)c4)nc3c2)c1 | pIC50 | 5.04
COc1cc(C(=O)CSc2nc3ccccc3[nH]2)ccc1O | pIC50 | 4.39
O=C(CSc1nc2ccc([N+](=O)[O-])cc2[nH]1)c1ccc(O)c(O)c1 | pIC50 | 4.26

Please give pIC50 for each item listed below.
1. O=C(CSc1nc2cc(OCc3ccccc3)ccc2[nH]1)c1ccc(O)c(O)c1
2. O=C(CSc1nc(-c2ccccc2)c(-c2ccccc2)[nH]1)c1ccc(O)c(O)c1

Result ::
1. 4.74
2. 3.74
